// provenance: paper PMC10150958

# System: T1, human complement component C1q (human, UniProt P02745 23-245; P02746 28-253; P02747 29-245)
# T1 construct: complement C1q, A chain, human; complement C1q, B chain, human; complement C1q, C chain, human; also called human C1q; copies: 6 + 6 + 6
# T1 sequence (P02745 23-245, chain 1 of 3): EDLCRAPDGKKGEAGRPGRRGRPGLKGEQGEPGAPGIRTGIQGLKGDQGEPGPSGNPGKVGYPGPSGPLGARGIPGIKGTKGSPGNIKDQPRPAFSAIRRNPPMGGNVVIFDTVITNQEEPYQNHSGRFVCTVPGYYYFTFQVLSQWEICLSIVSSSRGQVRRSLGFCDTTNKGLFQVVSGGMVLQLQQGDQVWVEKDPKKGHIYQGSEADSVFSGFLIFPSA
# T1 sequence (P02746 28-253, chain 2 of 3): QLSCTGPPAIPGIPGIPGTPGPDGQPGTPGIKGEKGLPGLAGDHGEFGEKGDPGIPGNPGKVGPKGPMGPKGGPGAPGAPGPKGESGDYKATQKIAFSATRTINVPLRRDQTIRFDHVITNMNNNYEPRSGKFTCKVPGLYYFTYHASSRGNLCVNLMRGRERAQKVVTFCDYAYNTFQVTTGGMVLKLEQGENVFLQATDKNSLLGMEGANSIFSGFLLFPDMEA
# T1 sequence (P02747 29-245, chain 3 of 3): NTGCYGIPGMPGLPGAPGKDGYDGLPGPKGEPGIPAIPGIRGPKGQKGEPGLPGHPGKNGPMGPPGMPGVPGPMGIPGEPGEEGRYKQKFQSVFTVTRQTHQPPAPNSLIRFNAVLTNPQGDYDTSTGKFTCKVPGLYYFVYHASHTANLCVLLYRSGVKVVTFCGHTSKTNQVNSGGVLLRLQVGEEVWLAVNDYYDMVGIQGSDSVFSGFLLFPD
# Test Details: SPR; Biacore T200; C1q coupled to a CM5 chip; mCRP or peptides a.a.35-47, a.a.199-206 injected at 30 μl/min in PBS with 0.05% P-20; steady-state curve for a.a.35-47
# Assay Conditions: both partners purified
Property Name: Kd (nM)
Express your answer in nM, writing the number without its unit.

Binder	Kd / nM
VCLHFYTELSSTR (peptide 35-47 derived from mCRP (C-reactive protein); Biotinylated and nonbiotinylated peptides were synthesized; also called a.a.35-47; mCRP a.a.35-47; source: synthetic peptide (GenScript, >95% purity)) [peptide 35-47 of mCRP]	2940
monomeric CRP (mCRP) (natural protein, UniProt P02741 19-224, looked up, C-reactive protein, monomeric (dissociated, denatured) form; Same protein in all assays: purified mCRP in solution or coated on plates; for SPR with the C1q peptides pentameric CRP was coupled to the chip and turned into mCRP by urea/EDTA, because mCRP precipitated in acetate buffer; also called monomeric C-reactive protein; urea-denatured mCRP; source: urea-denatured mCRP on the microplate; on …) QTDMSRKAFVFPKESDTSYVSLKAPLTKPLKAFTVCLHFYTELSSTRGYSIFSYATKRQDNEILIFWSKDIGYSFTVGGSEILFEVPEVTVAPVHICTSWESASGIVEFWVDGKPRVRKSLKKGYTVGAEASIILGQEQDSFGGNFEGSQSLVGDIGNVNMWDFVLSPDEINTIYLGGPFSPNVLNWRALKYEVQGEVFTKPQLWP	0.0737

Now look at this entry.
(Q) Returns the measured Kd for the input binder. Input: FTKPQLWP (peptide 199-206 derived from mCRP (C-reactive protein); Biotinylated and nonbiotinylated peptides were synthesized; also called a.a.199-206; source: synthetic peptide (GenScript, >95% purity)) [peptide 199-206 of mCRP]
(A) 890000
